molecular target: rePON1 (G3H8) (Oryctolagus cuniculus, UniProt P27170, A301G/A320V/A67S/G19R/H177S/I126T/I187A/K138S/K151R/K297E/K93E/L143V/L7P/M130L/M341L/P82S/S101G/V343I); construct: leaving the intact, 355 amino acids, PON1 protein without any additions; made in house; host or cells: E. coli Origami B (DE3), truncated pET32 vector without Trx, His and S tags; assay: biochemical; conditions: inhibition constants for phenyl-acetate, paraxon and L-HcyT hydrolysis
Sequence (P27170 with tags, fused parts or gaps with the stated changes): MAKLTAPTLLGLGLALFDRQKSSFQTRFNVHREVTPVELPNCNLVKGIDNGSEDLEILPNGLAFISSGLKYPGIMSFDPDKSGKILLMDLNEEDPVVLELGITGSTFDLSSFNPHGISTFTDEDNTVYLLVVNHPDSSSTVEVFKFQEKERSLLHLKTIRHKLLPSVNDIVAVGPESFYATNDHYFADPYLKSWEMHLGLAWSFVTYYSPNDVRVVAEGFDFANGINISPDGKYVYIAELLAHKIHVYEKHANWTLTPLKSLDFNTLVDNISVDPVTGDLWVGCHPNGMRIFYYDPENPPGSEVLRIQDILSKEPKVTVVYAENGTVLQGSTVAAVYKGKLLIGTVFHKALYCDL
pKi: −log10 of the molar value.
recorded.metric: pKi

Using the record for Oc1ccc2ccccc2n1 [2-hydroxyquinoline] , report its pKi.
4.96 to 5.52
